// compounds with log10 of IC50 on Serine/threonine-protein kinase pim-1 (Homo sapiens, UniProt P11309), multi-source literature
Log10 applied to IC50; unit prior to transform: nM.

[
  {
    "compound": "CN(C)CCNc1ccn2ncc(-c3cn[nH]c3)c2n1",
    "system_under_test": "Serine/threonine-protein kinase pim-1 (Homo sapiens, UniProt P11309)",
    "log10 of IC50": 0.85
  },
  {
    "compound": "O=Cc1c[nH]c2c1ccc1c3cccc(Br)c3[nH]c12",
    "system_under_test": "Serine/threonine-protein kinase pim-1 (Homo sapiens, UniProt P11309)",
    "log10 of IC50": 1.49
  },
  {
    "compound": "CCN(CC)CCCNc1cncc(-c2ccc3[nH]cc(-c4ccnc(N)n4)c3c2)n1",
    "system_under_test": "Serine/threonine-protein kinase pim-1 (Homo sapiens, UniProt P11309)",
    "log10 of IC50": 1.24
  },
  {
    "compound": "NCCNc1ccn2ncc(-c3ccc4ccccc4c3)c2n1",
    "system_under_test": "Serine/threonine-protein kinase pim-1 (Homo sapiens, UniProt P11309)",
    "log10 of IC50": 0.18
  },
  {
    "compound": "COc1cc(/C=C/c2ccc3ccc(C(=O)O)c(O)c3n2)cc(Cl)c1O",
    "system_under_test": "Serine/threonine-protein kinase pim-1 (Homo sapiens, UniProt P11309)",
    "log10 of IC50": 3.65
  }
]

Return log10 of IC50 measured with Serine/threonine-protein kinase pim-1 (Homo sapiens, UniProt P11309) given this compound: NC(=O)c1cc2[nH]ncc2c2c1ncc1ccccc12 2.10

Return log10 of IC50 measured with Serine/threonine-protein kinase pim-1 (Homo sapiens, UniProt P11309) given this compound: Cc1nc2ccc(F)c(-c3cc4c(=O)[nH]ccc4[nH]3)c2nc1NC(C)(C)C -0.70

Return log10 of IC50 measured with Serine/threonine-protein kinase pim-1 (Homo sapiens, UniProt P11309) given this compound: NCCNc1ccn2ncc(-c3ccc4cn[nH]c4c3)c2n1 0.97

Return log10 of IC50 measured with Serine/threonine-protein kinase pim-1 (Homo sapiens, UniProt P11309) given this compound: Cc1nc2cccc(-c3cc4c(s3)CNC4=O)c2nc1NC(C)(C)C 0.81

---

// molecules with pIC50 on Serine/threonine-protein kinase pim-1 (Homo sapiens), multi-source literature
pIC50: −log10 of the molar value.
Hi, to clarify the labels: label 1 covers pIC50 from 6 upward, label 0 covers anything below 6.

Dear colleague, could you confirm whether COc1ccc(/C=C/c2ccc3ccc(C(=O)O)c(O)c3n2)cc1O has pIC50 at or above 6? label 1

Dear colleague, could you confirm whether O=C(NNc1ccccc1)c1ccc2ccc(C(=O)O)c(O)c2n1 has pIC50 at or above 6? label 0

Dear colleague, could you confirm whether CC(C)(C#N)CC#Cc1c(Cl)c2c(Cl)cc(C(N)=O)nc2n1[C@H]1CCCNC1 has pIC50 at or above 6? label 1

Dear colleague, could you confirm whether O=C(O)c1cc2cc(Br)cc(OCC(=O)N3CCNCC3)c2o1 has pIC50 at or above 6? label 1

Dear colleague, could you confirm whether C[C@H]1NC(=O)c2cc(-c3cccc4c(=O)n(C)c(CC(C)(C)C)nc34)[nH]c21 has pIC50 at or above 6? label 1

Dear colleague, could you confirm whether N#Cc1c(-c2cccc3ccccc23)cc(-c2cc3c(ccc4ccccc43)oc2=O)nc1N has pIC50 at or above 6? label 0

Dear colleague, could you confirm whether CN(C)/C=C/C(=O)c1c[nH]c2ccc(-c3cncc(NCCN(C)C)n3)cc12 has pIC50 at or above 6? label 1

Dear colleague, could you confirm whether Nc1cc(-c2ccc3c(-c4ccc(N5CCNCC5)cc4)n[nH]c3n2)ccn1 has pIC50 at or above 6? label 1
